# Tested on: NCI-H460
# test-details: Growth inhibition of human NCI-H460 cells after 48 hrs by sulforhodamine B assay
# Assay type: functional
# measurement-parameters: NCI-H460, 48 h
Mark Fulfilled only for GI50 values smaller than 1000 nM; exact matches and larger values are Not fulfilled.

{"smi": "COc1cc(-c2nn(-c3cccc(NC(=O)c4ccc(N5CCOCC5)c(C(F)(F)F)c4)c3)cc2-c2ccncc2)ccc1Cl", "label-class": "Fulfilled"}
{"smi": "COc1cc(-c2nn(-c3cccc(NC(=O)Nc4ccc(Cl)c(C(F)(F)F)c4)c3)cc2-c2ccncc2)ccc1Cl", "label-class": "Not fulfilled"}
{"smi": "COc1cc(-c2nn(-c3cccc(NC(=O)c4cccc(C(F)(F)F)c4)c3)cc2-c2ccncc2)ccc1Cl", "label-class": "Not fulfilled"}
{"smi": "COc1cc(-c2nn(-c3cccc(NC(=O)c4ccc(Cl)c(C(F)(F)F)c4)c3)cc2-c2ccncc2)ccc1Cl", "label-class": "Not fulfilled"}
{"smi": "O=C(Nc1cccc(-n2cc(-c3ccncc3)c(-c3ccc(Cl)c(O)c3)n2)c1)Nc1cccc(C(F)(F)F)c1", "label-class": "Not fulfilled"}
